Target: UniProt P35462
Assay: biochemical
Format: binding
Settings: Ki hD3, three experiments, means ± SEM
measured metric: Ki (nM)
Kindly provide the numeric value in nM only, without the unit symbol.

The cases that follow already have their Ki on record.
[[record]]
compound = "CCn1c2ccccc2c2cc(CNCCCCNC(=O)c3ccc(-c4ccccn4)cc3)ccc21 [23i]"
study_target = "UniProt P35462"
reported_measurement = 21.3

[[record]]
compound = "Cn1c2c(c3ccccc31)CN(CCCCNC(=O)c1ccc(-c3ccccc3)cc1)CC2 [36f]"
study_target = "UniProt P35462"
reported_measurement = 4.1

[[record]]
compound = "CCn1c2c(c3ccccc31)CN(CCCCNC(=O)c1cc3ccccc3[nH]1)CC2 [36k]"
study_target = "UniProt P35462"
reported_measurement = 15.5


Task: Would you kindly share the measured Ki for CCn1c2ccccc2c2cc(CNCCCCNC(=O)c3ccc(-c4ccc(C(C)=O)cc4)cc3)ccc21 [23h] ?
Output: 24.2

Task: Same question, CCn1c2ccccc2c2cc(CNCCCCNC(=O)c3ccc(-c4cccnc4)cc3)ccc21 [23j] this time
Output: 13.9

Task: Entry to check: CCn1c2ccccc2c2cc(CNCCCCNC(=O)c3cc4ccccc4[nH]3)ccc21 [23a]
Output: 62.6

###

Molecular target: h5-HT2A (Homo sapiens)
Sequence (P28223 whole entry): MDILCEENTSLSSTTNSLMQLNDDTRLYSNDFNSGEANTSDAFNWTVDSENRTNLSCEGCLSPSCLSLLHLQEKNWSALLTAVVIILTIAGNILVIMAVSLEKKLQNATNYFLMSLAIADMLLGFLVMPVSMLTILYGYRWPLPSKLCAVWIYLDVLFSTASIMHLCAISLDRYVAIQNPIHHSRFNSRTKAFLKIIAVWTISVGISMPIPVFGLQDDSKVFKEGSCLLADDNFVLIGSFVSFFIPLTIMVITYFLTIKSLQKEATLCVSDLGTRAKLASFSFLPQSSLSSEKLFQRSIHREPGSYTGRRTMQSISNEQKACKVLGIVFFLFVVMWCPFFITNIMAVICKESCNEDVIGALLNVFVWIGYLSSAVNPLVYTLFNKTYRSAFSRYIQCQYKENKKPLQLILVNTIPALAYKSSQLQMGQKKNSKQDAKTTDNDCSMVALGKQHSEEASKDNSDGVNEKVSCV
measured metric: Ki (nM)
Provide the reading as a plain figure in nM.

Task: Fill blank: measured Ki of the compound CCn1c2ccccc2c2cc(CNCCCCNC(=O)c3ccc(-c4cccnc4)cc3)ccc21 [23j] is ____.
Output: 214

###

Biological target: hERG channel (Homo sapiens)
Sequence (Q12809 whole entry): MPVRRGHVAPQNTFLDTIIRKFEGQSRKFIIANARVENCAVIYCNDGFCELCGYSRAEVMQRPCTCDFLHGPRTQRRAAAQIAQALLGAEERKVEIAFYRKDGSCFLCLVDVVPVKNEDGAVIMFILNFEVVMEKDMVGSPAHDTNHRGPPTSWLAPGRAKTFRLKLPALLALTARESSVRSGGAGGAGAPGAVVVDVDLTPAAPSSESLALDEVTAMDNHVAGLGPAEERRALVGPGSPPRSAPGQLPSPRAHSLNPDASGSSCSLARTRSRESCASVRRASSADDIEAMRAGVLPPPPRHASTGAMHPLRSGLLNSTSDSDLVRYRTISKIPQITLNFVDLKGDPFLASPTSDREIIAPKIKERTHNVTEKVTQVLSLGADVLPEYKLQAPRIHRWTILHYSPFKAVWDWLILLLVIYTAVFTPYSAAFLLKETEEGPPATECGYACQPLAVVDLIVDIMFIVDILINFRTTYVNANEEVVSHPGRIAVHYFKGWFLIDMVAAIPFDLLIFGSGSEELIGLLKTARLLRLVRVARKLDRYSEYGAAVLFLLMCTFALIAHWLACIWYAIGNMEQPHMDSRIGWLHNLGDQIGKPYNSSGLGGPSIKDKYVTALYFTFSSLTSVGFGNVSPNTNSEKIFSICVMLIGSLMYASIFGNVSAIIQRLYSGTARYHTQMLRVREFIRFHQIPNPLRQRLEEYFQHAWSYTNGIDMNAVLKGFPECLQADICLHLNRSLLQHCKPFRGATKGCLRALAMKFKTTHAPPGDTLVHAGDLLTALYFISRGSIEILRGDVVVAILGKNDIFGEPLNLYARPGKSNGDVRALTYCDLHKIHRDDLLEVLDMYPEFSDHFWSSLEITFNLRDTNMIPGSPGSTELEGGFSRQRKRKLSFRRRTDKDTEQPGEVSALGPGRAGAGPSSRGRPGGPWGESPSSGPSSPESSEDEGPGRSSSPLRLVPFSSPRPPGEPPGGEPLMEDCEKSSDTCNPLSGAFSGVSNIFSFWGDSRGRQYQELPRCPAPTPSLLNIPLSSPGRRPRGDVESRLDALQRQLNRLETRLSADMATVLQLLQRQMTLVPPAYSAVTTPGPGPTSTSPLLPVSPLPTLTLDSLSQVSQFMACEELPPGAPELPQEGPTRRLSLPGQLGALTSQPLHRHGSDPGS
Test: hERG channel automated patch clamp
Format: cell-based
Conditions: hERG inhibition IC50, patch clamp, tested three times
Attribute: pIC50
Please report pIC50 as the negative decimal logarithm of the molar concentration, giving only the number.

[[record]]
compound = "Cn1c2c(c3ccccc31)CN(CCCCNC(=O)c1cc3ccccc3[nH]1)CC2 [36a]"
reported_measurement = 5.88

[[record]]
compound = "Cn1c2c(c3ccccc31)CN(CCCCNC(=O)c1ccc(-c3ccccc3)cc1)CC2 [36f]"
reported_measurement = 4.33


Could you now consider this next compound?
Task: Under hERG channel (Homo sapiens): pIC50 value of CCn1c2ccccc2c2cc(CNCCCCNC(=O)c3ccc(-c4cccnc4)cc3)ccc21 [23j] ?
Output: 5.61

###

Target: UniProt:Q12809
Experiment: hERG channel automated patch clamp
Format: cell-based
Conditions: hERG IC50, patch clamp
pIC50: −log10 of the molar value.
measured metric: pIC50

Task: I'd like to know its pIC50. The compound in question is Cn1c2c(c3ccccc31)CN(CCCCNC(=O)c1ccc(-c3ccccc3)cc1)CC2 [36f]
Output: < 4.40

###

Target: hD5 (Homo sapiens, UniProt P21918)
Sequence (P21918 whole entry): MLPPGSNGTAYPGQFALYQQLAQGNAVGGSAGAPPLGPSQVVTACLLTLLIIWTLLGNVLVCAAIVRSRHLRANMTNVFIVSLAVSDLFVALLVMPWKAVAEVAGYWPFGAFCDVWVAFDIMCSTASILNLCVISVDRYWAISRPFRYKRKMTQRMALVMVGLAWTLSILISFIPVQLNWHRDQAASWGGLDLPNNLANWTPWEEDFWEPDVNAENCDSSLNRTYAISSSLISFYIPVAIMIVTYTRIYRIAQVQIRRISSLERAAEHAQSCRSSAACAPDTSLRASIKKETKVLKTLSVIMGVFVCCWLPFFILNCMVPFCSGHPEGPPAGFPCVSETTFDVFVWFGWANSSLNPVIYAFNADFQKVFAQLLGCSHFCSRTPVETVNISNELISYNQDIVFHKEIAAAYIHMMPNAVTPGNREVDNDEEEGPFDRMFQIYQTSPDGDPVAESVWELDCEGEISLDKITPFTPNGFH
measured metric: Ki

Task: // returns reported Ki for input CCn1c2ccccc2c2cc(CNCCCCNC(=O)c3ccc(-c4cccnc4)cc3)ccc21 [23j]
Output: > 10 µM

###

Experiment: BBB penetration study in ICR mice
Format: in vivo, mouse
Settings: ICR, mouse, brain, iv, 3 mg/kg, Brain concentration at 0.5 h, 3 mg/kg i.v.
measured metric: concentration at 0.5 h (ng/mL)
Please respond with the number in ng/mL and leave the unit unwritten.

Task: May I ask what concentration at 0.5 h has been recorded for CCn1c2ccccc2c2cc(CNCCCCNC(=O)c3ccc(-c4cccnc4)cc3)ccc21 [23j] ?
Output: 98

###

Target: hSERT (Homo sapiens)
Sequence (P31645 whole entry): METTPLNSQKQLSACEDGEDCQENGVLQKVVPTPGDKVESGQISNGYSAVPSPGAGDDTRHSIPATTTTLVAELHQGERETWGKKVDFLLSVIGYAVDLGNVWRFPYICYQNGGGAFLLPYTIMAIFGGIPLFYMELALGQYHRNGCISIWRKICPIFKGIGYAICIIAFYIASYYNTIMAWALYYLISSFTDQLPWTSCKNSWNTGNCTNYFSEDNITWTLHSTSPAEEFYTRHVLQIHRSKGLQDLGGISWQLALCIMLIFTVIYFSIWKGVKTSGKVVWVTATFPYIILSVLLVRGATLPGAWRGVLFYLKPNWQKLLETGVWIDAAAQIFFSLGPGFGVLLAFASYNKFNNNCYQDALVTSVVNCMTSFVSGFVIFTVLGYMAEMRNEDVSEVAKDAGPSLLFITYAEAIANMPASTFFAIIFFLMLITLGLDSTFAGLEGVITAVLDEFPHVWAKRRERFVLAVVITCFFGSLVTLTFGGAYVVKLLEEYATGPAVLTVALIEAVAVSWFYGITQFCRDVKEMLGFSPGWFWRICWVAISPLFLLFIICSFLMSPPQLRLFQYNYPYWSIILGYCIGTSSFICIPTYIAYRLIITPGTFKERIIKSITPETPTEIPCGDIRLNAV
measured metric: Ki (µM)
# unit: µM | format: bare number

Task: Ki for CCn1c2ccccc2c2cc(CNCCCCNC(=O)c3ccc(-c4cccnc4)cc3)ccc21 [23j] ?
Output: 5.41

###

Test: Pharmacokinetics study in ICR mice
Assay type: in vivo, mouse
Details: ICR, mouse, plasma, po, 10 mg/kg
measured metric: MRT (min)
Please reply with the bare figure in min and do not write the unit itself.

Task: Fill in: MRT of CCn1c2ccccc2c2cc(CNCCCCNC(=O)c3ccc(-c4cccnc4)cc3)ccc21 [23j] is ___
Output: 52.2

###

Molecular target: hD3R (Homo sapiens)
Sequence (P35462 whole entry): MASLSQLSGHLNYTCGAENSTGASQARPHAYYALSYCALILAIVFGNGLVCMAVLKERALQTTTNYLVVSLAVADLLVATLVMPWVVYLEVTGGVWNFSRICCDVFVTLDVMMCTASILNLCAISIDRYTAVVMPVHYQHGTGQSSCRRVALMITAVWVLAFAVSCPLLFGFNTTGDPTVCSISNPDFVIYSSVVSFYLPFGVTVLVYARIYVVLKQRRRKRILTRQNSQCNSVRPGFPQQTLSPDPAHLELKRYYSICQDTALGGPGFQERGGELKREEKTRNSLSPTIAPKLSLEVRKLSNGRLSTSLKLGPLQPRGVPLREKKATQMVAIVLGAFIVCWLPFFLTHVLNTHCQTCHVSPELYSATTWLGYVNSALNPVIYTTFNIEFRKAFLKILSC
Assay: biochemical
Format: binding
Conditions: Ki hD3, three experiments, means ± SEM
Consider the following compounds and their measured log10 Ki readings.
Values below are the log10 of the recorded Ki, with nM as the unit.

Please review the following examples before continuing.
[[record]]
compound = "CCn1c2ccccc2c2cc(CNCCCCNC(=O)c3nc4ccccc4[nH]3)ccc21 [23b]"
reported_measurement = 2.76

[[record]]
compound = "Cn1c2c(c3ccccc31)CCN(CCCCNC(=O)c1ccc3nc[nH]c3c1)C2 [42e]"
reported_measurement = 2.31

[[record]]
compound = "CCN(CCCCNC(=O)c1ccc(-c2cccnc2)cc1)Cc1ccc2c(c1)c1ccccc1n2CC [31b]"
reported_measurement = 2.63

[[record]]
compound = "Cn1c2c(c3ccccc31)CN(CCCCNC(=O)c1ccc3[nH]cnc3c1)CC2 [36j]"
reported_measurement = 1.15

[[record]]
compound = "CCn1c2ccccc2c2cc(CNCCCCNC(=O)c3cc4ccccn4n3)ccc21 [23c]"
reported_measurement = 1.66


Task: Which value of log10 Ki has been reported for CCCN(CCCCNC(=O)c1ccc(-c2cccnc2)cc1)Cc1ccc2c(c1)c1ccccc1n2CC [31d] in the records?
Output: 3.00

Task: Request: Cn1c2c(c3ccccc31)CN(CCCCNC(=O)c1ccc(-c3cccnc3)cc1)CC2 [36g]
Output: 1.46

Task: Also check CCn1c2c(c3ccccc31)CCN(CCCCNC(=O)c1ccc3[nH]c(=O)[nH]c3c1)C2 [42j]
Output: 2.17

Task: Next record, please: CCn1c2ccccc2c2cc(CNCCCCNC(=O)c3ccc4[nH]cnc4c3)ccc21 [23d]
Output: 2.10

###

Experiment: BBB penetration study in ICR mice
Type: in vivo, mouse
Settings: ICR, mouse, plasma, po, 10 mg/kg, Plasma concentration at 2.0 h, 10 mg/kg p.o.
measured metric: concentration at 2 h (ng/mL)
Hi! Could you send only the number? It should be in ng/mL, unit omitted.

Task: What does the record list as concentration at 2 h for CCn1c2ccccc2c2cc(CNCCCCNC(=O)c3ccc(-c4cccnc4)cc3)ccc21 [23j] ?
Output: 2.89

###

Test: BBB penetration study in ICR mice
Format: in vivo, mouse
Details: ICR, mouse, plasma, iv, 3 mg/kg, Plasma concentration at 2.0 h, 3 mg/kg i.v.
measured metric: concentration at 2 h

Task: // concentration at 2 h lookup, key: CCn1c2ccccc2c2cc(CNCCCCNC(=O)c3ccc(-c4cccnc4)cc3)ccc21 [23j]
Output: 7.17 ng/mL

###

Assay: Pharmacokinetics study in ICR mice
Type: in vivo, mouse
Conditions: ICR, mouse, plasma, oral, 10 mg/kg
measured metric: bioavailability (%)
Just the number please, in %, no unit attached.

Task: Which value of bioavailability has been reported for CCn1c2ccccc2c2cc(CNCCCCNC(=O)c3ccc(-c4cccnc4)cc3)ccc21 [23j] in the records?
Output: 8.7

###

Target: hD3R (Homo sapiens)
Test: biochemical
Assay type: binding
Conditions: read-out: % inhibition at 10 μmol/L hD3, 10 μmol/L test compound
measured metric: inhibition at 10 µM (%)
Kindly answer with a numeric value in %, unit omitted.

[[record]]
compound = "CCCN(CCCCNC(=O)c1cc2ccccn2n1)Cc1ccc2c(c1)c1ccccc1n2CC [31e]"
reported_measurement = 74.8

[[record]]
compound = "c1ccc2c(c1)[nH]c1ccc(CNCCCn3ccnc3)cc12 [compound 8]"
reported_measurement = 54.2

[[record]]
compound = "Cn1c2c(c3ccccc31)CN(CCCCNC(=O)c1cc3ccccc3[nH]1)CC2 [36a]"
reported_measurement = 97.6

[[record]]
compound = "Cn1c2c(c3ccccc31)CCN(CCCCNC(=O)c1ccc3nc[nH]c3c1)C2 [42e]"
reported_measurement = 81.5

[[record]]
compound = "CCn1c2ccccc2c2cc(CNCCCCNC(=O)c3ccnc4ccccc34)ccc21 [23m]"
reported_measurement = 63.1

[[record]]
compound = "CCn1c2ccccc2c2cc(CNCCCCNC(=O)c3ccc4[nH]cnc4c3)ccc21 [23d]"
reported_measurement = 98.5


Task: GET /values?readout=inhibition at 10 µM&item= CCn1c2ccccc2c2cc(CNCCCCNC(=O)c3ccc4[nH]c(=O)[nH]c4c3)ccc21 [23e]
Output: 99.2

Task: Now try CCN(CCCCNC(=O)c1cc2ccccc2[nH]1)Cc1ccc2c(c1)c1ccccc1n2CC [31a] .
Output: 96.2

Task: # iterate: CCn1c2ccccc2c2cc(CNCCCCNC(=O)c3cc4ccccn4n3)ccc21 [23c]
Output: 98.4

Task: Please do the same for CCn1c2c(c3ccccc31)CCN(CCCCNC(=O)c1ccc3nc[nH]c3c1)C2 [42f] as well.
Output: 80.6

Task: Another compound to look at: Cn1c2c(c3ccccc31)CN(CCCCNC(=O)c1ccc3[nH]c4ccccc4c3c1)CC2 [36h]
Output: 95.5

Task: Try the compound CCN(CCCCNC(=O)c1ccc(-c2cccnc2)cc1)Cc1ccc2c(c1)c1ccccc1n2CC [31b]
Output: 78.5

Task: Try this compound too: CCn1c2ccccc2c2cc(CNCCCNC(=O)c3cc4ccccc4[nH]3)ccc21 [22b]
Output: 21.3

Task: Same question, Cn1c2c(c3ccccc31)CN(CCCCNC(=O)c1ccc3[nH]c(=O)[nH]c3c1)CC2 [36i] this time
Output: 87.5

Task: Another compound to look at: CCn1c2ccccc2c2cc(CNCCCCNC(=O)c3ccc(-c4ccccn4)cc3)ccc21 [23i]
Output: 101

Task: CCn1c2ccccc2c2cc(CNCCCCNC(=O)c3ccc(-c4ccccc4)cc3)ccc21 [23g] ?
Output: 102

Task: Subsequent entry: CCn1c2ccccc2c2cc(CNCCCCNC(=O)c3cc4ccccc4[nH]3)ccc21 [23a]
Output: 87

Task: Do the same for CCn1c2ccccc2c2cc(CNCCCNC(=O)N(C)C)ccc21 [22a] please
Output: 42.1

Task: Try the compound CCn1c2c(c3ccccc31)CCN(CCCCNC(=O)c1ccc(-c3cccnc3)cc1)C2 [42h]
Output: 31.3

Task: Follow-up entry: Cn1c2c(c3ccccc31)CCN(CCCCNC(=O)c1ccc(-c3cccnc3)cc1)C2 [42g]
Output: 69.6

Task: Please give the result for CCn1c2ccccc2c2cc(CNCCCCNC(=O)c3ccc4[nH]c5ccccc5c4c3)ccc21 [23k] too.
Output: 98.1

Task: Would you kindly repeat that for Cn1c2c(c3ccccc31)CN(CCCCNC(=O)c1cn3nc(Cl)ccc3n1)CC2 [36c] ?
Output: 66.3

Task: One more compound: CCn1c2c(c3ccccc31)CN(CCCCNC(=O)c1cc3ccccc3[nH]1)CC2 [36k]
Output: 106

Task: Item: Cn1c2c(c3ccccc31)CN(CCCCNC(=O)c1ccc(-c3cccnc3)cc1)CC2 [36g]
Output: 83.8
